- Tested on: HOP-62
- protocolSummary: NCI tumour cell line growth inhibition, 48 h
Calls of active or inactive are those of the source. Cut-off read from the data, not from the text of the source: active = GI50 up to about 1.1 µM and inactive = higher.
Classes used: active, inactive

compound	labelClass
CC(=O)OC1C=C(C=O)C(O)(C=O)C2(C)CCCC(C)(C)C12 (stereo not drawn)	inactive
COC(=O)[C@@H](O)[C@](O)(CCC(C)C)C(=O)O[C@@H]1C(OC)=C[C@]23CCCN2CCc2cc4c(cc2[C@H]13)OCO4	active
C=C(Cl)[C@](Cl)(CBr)CC[C@@H](Br)C(C)(C)Cl [HALOMON]	active

---

- Test system: RXF 393
- protocolSummary: NCI tumour cell line growth inhibition, 48 h
The source made the active and inactive calls. Cut-off read from the data, not from the text of the source: active = GI50 up to about 1.1 µM and inactive = higher.
Outcomes: T for active, F for inactive

compound	labelClass
COC(=O)Nc1nc2cc(NC(=O)c3cccs3)ccc2[nH]1	F
Cc1cc2ccccc2n1CC(=O)NCC(C)C	F
O=C1OC(C(O)CO)C(C(O)CO)OC1=O (configuration not stated)	F
O=C(c1ccccc1)c1c(C(F)(F)F)[n+]([O-])c2cc(F)c(F)cc2[n+]1[O-]	T
COc1ccccc1N1C(=O)CC(=O)N(C(=O)CCCCCCCCC(=O)N2C(=O)CC(=O)N(c3ccccc3OC)C2=S)C1=S	F
COc1cc(/N=N/c2cccc(S(N)(=O)=O)c2)c2ccccc2c1N	F
CCOC(=O)C(NC(=O)c1cccc(Cl)c1)(Nc1cccc(C)c1)C(F)(F)F (configuration not stated)	F

Values from ChEMBL document CHEMBL1201862
